system: Aβ40 in conditioned medium of cells stably expressing Amyloid Precursor Protein (APP); assay: In vitro BACE cell-based assay (Aβ40 in conditioned medium, sandwich ELISA); conditions: Homo sapiens, HEK293, Table 2; HEK cells; read-out: HEK cell assay;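 further: compounds added as a dilution series, secreted peptide quantified by europium time-resolved fluorescence readout, potency fitted from percent of control versus compound concentration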
REPORTED ENDPOINT: pIC50
Answers are plain numbers, as −log10 of the molar value.

COMPOUND: CC(C)(C)Cc1cnc2c(c1)[C@@H](NC[C@@H](O)[C@H](Cc1cccc(C#N)c1)NC(=O)c1ncccc1F)CC1(CC(F)(F)C1)O2 [compound 473]
pIC50: 7.20
--
COMPOUND: COCC(=O)N[C@@H](Cc1ccc(F)cc1)[C@H](O)CN[C@H]1CC2(CCC2)Oc2c1cc(CC(C)C)cc2-n1ccnc1 [Example 478]
pIC50: 7.17

Any idea what its pIC50 is? The compound is CC(=O)N[C@@H](Cc1cc(F)cc(F)c1)[C@H](O)CN[C@H]1CC2(CCC2)Oc2c1cc(CC(C)(C)C)nc2-c1cncs1 [compound 481]
6.91
